Give IC50 for every item shown.
System: PC-9 cells (EGFR Ex19Del)
experiment-description: Potency Assay: pERK (SOS1 pERK IC50 Assay, AlphaLISA SureFire Ultra p-ERK1/2)
Format: cell-based
test-settings: Homo sapiens; PC-9 cells (EGFR Ex19Del), 1 hour incubation, AlphaLISA p-ERK1/2; read-out: SOS1 pERK IC50

Quick one: IC50 for COc1cccc(C(=O)N2CCc3nc(Cl)nc(N[C@H](C)c4cc(N)cc(C(F)(F)F)c4)c3C2)n1 ?
> 1 µM

Need IC50, item CC(Nc1nc(Cl)nc2c1CN(C(=O)N1CCOCC1)C2)c1cccc(C(F)(F)CO)c1 (stereo not drawn)
< 1 µM

Request the reported IC50 associated with CC(C)OC1(C(=O)N2CCc3nc(Cl)nc(N[C@H](C)c4cc(N)cc(C(F)(F)F)c4)c3C2)CCOC1 (stereo partly drawn)
> 1 µM

What value of IC50 has been reported for the following compound? C[C@@H](Nc1nc(Cl)nc2c1CN(C(=O)N1CCOCC1)C2)c1cccc(C(C)(F)F)c1F
< 1 µM

IC50 for COC1(C(=O)N2Cc3nc(Cl)nc(N[C@H](C)c4cc(N)cc(C(F)(F)F)c4)c3C2)CCOCC1 ?
< 1 µM

Can you share its IC50? I mean this compound: COCC1(C(=O)N2CCc3nc(Cl)nc(N[C@H](C)c4cc(N)cc(C(F)(F)F)c4)c3C2)CCC1
> 1 µM

Entry C[C@@H](Nc1nc(Cl)nc2c1CN(C(=O)C1(C)CCN(C3COC3)CC1)C2)c1cccc(C(F)F)c1F : reported IC50 = ?
< 1 µM

For the compound C[C@@H](Nc1nc(Cl)nc2c1CN(C(=O)C1(C#N)CN(C)C1)C2)c1cccc(C(F)F)c1F , what IC50 is on record?
> 1 µM

# lookup: IC50 of COc1ccc(C(=O)N2CCc3nc(Cl)nc(N[C@H](C)c4cc(N)cc(C(F)(F)F)c4)c3C2)nc1OC
> 1 µM

I would be grateful if you could share the reported IC50 for C[C@@H](Nc1nc(Cl)nc2c1CN(C(=O)N1CC3CCC1CN3)C2)c1cccc(C(F)F)c1F (stereo partly drawn) .
< 1 µM

Suppose we examine the compound C[C@@H](Nc1nc(Cl)nc2c1CN(C(=O)C1(N)CCOCC1)C2)c1cccc(C(F)F)c1F ; what IC50 value has been reported?
< 1 µM

Could you tell me which IC50 is on file for C[C@@H](Nc1nc(Cl)nc2c1CN(C(=O)N1CCOC(F)(F)C1)C2)c1cccc(C(F)F)c1F ?
< 1 µM

// lookup IC50 for COC1(C(=O)N2CCc3nc(Cl)nc(N[C@H](C)c4cc(N)cc(C(F)(F)F)c4)c3C2)CCCOC1 (stereo partly drawn)
> 1 µM

Query (compound): Cc1nc2c(c(N[C@H](C)c3cc(N)cc(C(F)(F)F)c3)n1)CN(S(=O)(=O)C1CCOCC1)C2 ; field requested: IC50
< 1 µM

What value of measured IC50 is listed for C[C@@H](Nc1nc(Cl)nc2c1CN(C(=O)C13CN(C1)S(=O)(=O)C3)C2)c1cccc(C(F)F)c1F ?
< 1 µM

---

Kindly supply the reported pIC50 values for the records listed here.
Tested on: PC-9 cells (EGFR Ex19Del)
experiment-description: Potency Assay: pERK (SOS1 pERK IC50 Assay, AlphaLISA SureFire Ultra p-ERK1/2)
Type: cell-based
test-settings: Homo sapiens; PC-9 cells (EGFR Ex19Del), 1 hour incubation, AlphaLISA p-ERK1/2; read-out: SOS1 pERK IC50
pIC50: −log10 of the molar value.

What does the record list as pIC50 for C[C@@H](Nc1nc(Cl)nc2c1CN(C(=O)N1CC3CCC(C1)N3C1COC1)C2)c1cccc(C(F)F)c1F ?
> 6.00

Need pIC50, item COc1cc(C(=O)N2Cc3nc(Cl)nc(N[C@H](C)c4cc(N)cc(C(F)(F)F)c4)c3C2)ncn1
> 6.00

May I ask what pIC50 has been recorded for C[C@@H](Nc1nc(Cl)nc2c1CN(C(=O)C(C)(C)C)C2)c1cc(N)cc(C(F)(F)F)c1 ?
> 6.00

Given C[C@@H](Nc1ncnc2c1CN(CC1CCOC1)C2)c1cc(N)cc(C(F)(F)F)c1 (stereo partly shown) , state its recorded pIC50.
< 6.00

I have this compound here, C[C@@H](Nc1nc(Cl)nc2c1C[C@@H](N1CCOCC1)CC2)c1cccc(C(F)(F)CO)c1 , and I need its recorded pIC50.
> 6.00

Record request: pIC50 value, item C[C@@H](Nc1nc(Cl)nc2c1CN(C(=O)c1ccncn1)CC2)c1cc(N)cc(C(F)(F)F)c1
< 6.00

Requested read-out: pIC50. Entry: CC(=O)N1CCN(C(=O)N2Cc3nc(Cl)nc(N[C@H](C)c4cccc(C(F)(F)F)c4)c3C2)CC1
> 6.00

Where do these numbers come from? They come from patent US20230096028A1.
